- System: Wnt5a (protein binding on small-molecule microarray)
- Method notes: Wnt5a binders on small-molecule microarray, primary screen, biophysical, 635/667 nm fluorescence (AID 1142);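 further: fluorescence read at 667 nm with signal to noise per printed feature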
- Condition summary: 635 nm fluorescence, higher = more signal
Listed next: entries and their corresponding composite z-score.
Write no unit; give the number alone.

CC(=O)OC[C@H]1O[C@H](CC=NO[C@H](C)c2cn([C@H](CO)Cc3ccccc3)nn2)C=C[C@@H]1OC(C)=O: 0.315

// recorded composite z-score for CC(C)CON=C1C[C@@H](O)[C@@H](O)[C@@H]2[C@@H]3C(=O)N(Cc4ccc5c(c4)OCO5)C(=O)[C@@H]3CC[C@H]12 : 0.365

// recorded composite z-score for CC(C)CON=C1C[C@@H](O)[C@@H](O)[C@@H]2[C@@H]3C(=O)N(C4CCCCC4)C(=O)[C@@H]3CC[C@H]12 : 0.298

// recorded composite z-score for COC(=O)CC=C[C@@H](C)[C@@H](C=NOC[C@@H](O)[C@H]1O[C@@H]2OC(C)(C)O[C@@H]2[C@H]1O)NS(=O)(=O)c1ccc(C)cc1 : 0.242
